Reported pEC50 values for the following compounds.
TESTED_ON: IRE1a (Homo sapiens, UniProt O75460)
Sequence (O75460 19-977): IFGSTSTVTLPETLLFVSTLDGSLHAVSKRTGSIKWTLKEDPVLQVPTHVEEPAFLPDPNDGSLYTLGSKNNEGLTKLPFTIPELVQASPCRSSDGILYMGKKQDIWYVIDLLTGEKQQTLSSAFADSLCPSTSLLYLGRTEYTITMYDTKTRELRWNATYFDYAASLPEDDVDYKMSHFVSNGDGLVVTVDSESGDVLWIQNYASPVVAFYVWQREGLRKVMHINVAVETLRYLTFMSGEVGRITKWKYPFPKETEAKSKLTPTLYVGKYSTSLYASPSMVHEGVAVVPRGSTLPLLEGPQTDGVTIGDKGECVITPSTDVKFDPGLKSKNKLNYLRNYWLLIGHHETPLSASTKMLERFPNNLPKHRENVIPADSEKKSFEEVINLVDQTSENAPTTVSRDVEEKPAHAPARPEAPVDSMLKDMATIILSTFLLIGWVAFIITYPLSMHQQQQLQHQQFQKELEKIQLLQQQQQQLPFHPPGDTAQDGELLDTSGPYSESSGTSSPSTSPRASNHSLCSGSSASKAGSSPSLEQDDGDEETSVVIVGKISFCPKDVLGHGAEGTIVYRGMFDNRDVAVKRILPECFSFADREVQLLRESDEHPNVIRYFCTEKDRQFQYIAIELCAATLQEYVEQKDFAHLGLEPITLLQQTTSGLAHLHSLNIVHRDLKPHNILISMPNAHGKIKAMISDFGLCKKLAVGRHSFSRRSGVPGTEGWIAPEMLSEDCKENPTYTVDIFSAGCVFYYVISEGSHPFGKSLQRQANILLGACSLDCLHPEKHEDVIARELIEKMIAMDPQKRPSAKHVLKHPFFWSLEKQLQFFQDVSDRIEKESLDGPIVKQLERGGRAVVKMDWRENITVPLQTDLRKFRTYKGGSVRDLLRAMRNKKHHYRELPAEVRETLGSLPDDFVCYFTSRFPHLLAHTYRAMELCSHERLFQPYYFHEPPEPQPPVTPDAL
ASSAY_NAME: IRE1a Endoribonuclease Nanoluciferase Assay (XBP1 luciferase reporter in 293T cells)
TEST_SETTINGS: XBP1 nanoluciferase reporter in 293T cells, ER stressor; tested as the salt named
pEC50: −log10 of the molar value.

COMPOUND: CCc1cc(-c2ccc(NS(=O)(=O)c3ccccc3Cl)c(F)c2)cc2cnc(N[C@H]3CC4C[C@@H](N)CC4C3)nc12 (stereo partly shown)
pEC50: 7.30 to 8.30
//
COMPOUND: CCc1cc(-c2ccc(NS(=O)(=O)c3ccccc3Cl)c(F)c2)cc2cnc(N[C@H]3CC[C@H](NC(C)=O)CC3)nc12
pEC50: 7.00 to 7.30

Prompt: Bench note: what pEC50 did "COc1nc(NS(=O)(=O)c2ccccc2Cl)ccc1-c1cc(C)c2nc(N[C@H]3CC[C@H](N(C)C)CC3)ncc2c1" show?
Response: > 8.30

Prompt: Same question for "CCc1cc(-c2ccc(NS(=O)(=O)c3ccccc3Cl)c(F)c2)cc2cnc(N[C@H]3CC[C@H](NC)CC3)nc12" please.
Response: > 8.30

Prompt: Same question for "Cc1nc(NS(=O)(=O)c2ccccc2Cl)c(F)cc1-c1ccc2nc(N[C@H]3CC[C@H](N(C)C)CC3)ncc2c1" please.
Response: 7.30 to 8.30

Prompt: Same question for "CCc1cc(-c2cnc(NS(=O)(=O)c3ccccc3Cl)cc2OC)cc2cnc(N[C@H]3CC[C@H](N)CC3)nc12" please.
Response: 5.00 to 7.00

Prompt: Same question for "CCc1cc(-c2ccc(NS(=O)(=O)c3ccccc3Cl)cn2)cc2cnc(N[C@H]3CC[C@H](N)CC3)nc12" please.
Response: > 8.30
